Target: T1, mouse AQP3 in lysate of HEK293T cells overexpressing mouse AQP3 and a myc-biotinylated tag (mouse, UniProt Q8R2N1 1-292)
T1 construct: Cell lysate used in ELISA; also called AQP3 containing cell lysate; not shown: myc-biotinylated tag
T1 sequence (looked up): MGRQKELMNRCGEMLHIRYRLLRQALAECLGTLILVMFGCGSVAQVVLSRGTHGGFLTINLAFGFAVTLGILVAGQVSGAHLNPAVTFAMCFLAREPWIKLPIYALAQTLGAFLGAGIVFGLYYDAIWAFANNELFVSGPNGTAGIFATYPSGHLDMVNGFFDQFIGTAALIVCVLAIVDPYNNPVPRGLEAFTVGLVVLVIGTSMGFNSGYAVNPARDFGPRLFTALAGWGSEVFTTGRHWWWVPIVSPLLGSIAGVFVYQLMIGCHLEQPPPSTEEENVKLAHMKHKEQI
Experiment: ELISA on lysate of HEK293T cells overexpressing mouse AQP3 (FIG. 3)
endpointName: binding result

>  <binder>
Antibody G (antibody, mouse IgG2a, kappa, V domains shown, also called anti AQP3 antibody G; Antiboy G) VH: QVQLKQSGAELVRPGASVTLSCKASGYTFTDYEMHWVKQTPVHGLEWIGGIDPETGGTAYNQKFKGKAILTADKSSSTAYMELRSLTSEDSAVYYCTRWGAITSFVALRGFAYWGQGTLVTVSS VL: DIQMTQSPSSLSVSAGEKVTMSCKSSQSLLNSGNQKNYLAWYQQKPGQPPKLLIYGASTRESGVPDRFTGSGSGTDFTLTISSVQAEDLAVYYCQNDHSYPPTFGAGTKLELKR

>  <result>
binds

$$$$
>  <binder>
Antibody E (antibody, mouse IgG2a, kappa, V domains shown, also called anti AQP3 antibody E; Antiboy E) VH: EVKLLESGAELVRPGASVTLSCKASGYTFTDYEMHWVKQTPVHGLEWIGGIDPESGGTGYNQKFKGKAILTADKSSSTAYMELRSLTSEDSAVYFCTRSGYYGSPLLDYWGQGTTLTVSS VL: QIVLSQSPAIMSASLGERVTMTCTASSSVSSSYLHWYQQKPGSSPKLWIYSTSNLASGVPARFSGSGSGTSYSLTISSMEAEDAATYYCHQYHRSPPTFGAGTKLEIKR

>  <result>
binds

$$$$
>  <binder>
Antibody J (antibody, mouse IgG2a, kappa, V domains shown, also called anti AQP3 antibody J) VH: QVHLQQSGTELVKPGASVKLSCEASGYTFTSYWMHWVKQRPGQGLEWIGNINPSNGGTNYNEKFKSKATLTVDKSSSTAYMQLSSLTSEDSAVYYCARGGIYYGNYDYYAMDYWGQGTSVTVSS VL: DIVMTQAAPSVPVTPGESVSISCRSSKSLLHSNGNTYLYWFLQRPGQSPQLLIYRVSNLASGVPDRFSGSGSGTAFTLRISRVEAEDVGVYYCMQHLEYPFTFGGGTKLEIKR

>  <result>
binds

$$$$
